# Test system: HCC1937
# procedure.summary: drug sensitivity score (DSS), CellTiter-Glo (DSS (AUC-based score)); higher = stronger drug effect (viability inhibition or cytotoxicity); extreme values may be limits of the assay
# measurement.setup: incubation time: 72 h
metric: drug sensitivity score
API note: the answer field is a bare number with no unit suffix.

These solved cases illustrate the format of a correct answer.
compound | drug sensitivity score
CC[C@@H]1C(=O)N(C)c2cnc(Nc3ccc(C(=O)N[C@H]4CC[C@H](N5CCN(CC6CC6)CC5)CC4)cc3OC)nc2N1C(C)C | 3.79
COc1cc2c(Oc3ccc(NC(=O)C4(C(=O)Nc5ccc(F)cc5)CC4)cc3F)ccnc2cc1OCCCN1CCOCC1 | 0

Quick check: drug sensitivity score on HCC1937, item CC(C)C(=O)Nc1ccc([N+](=O)[O-])c(C(F)(F)F)c1 [Flutamide] ?
0
